Listed here are molecules together with their documented CDK7 (5 nM) pIC50.
studyTarget: CDK7/Cyclin H/MAT-1 complex (Homo sapiens, UniProt P50613)
Construct: Human CDK7 (amino acids 1-346); His6 (N); TEV protease cleavage site (N); made in house; host or cells: baculovirus-SF9 insect cells
Sequence (P50613 whole entry, the tested form may be a part): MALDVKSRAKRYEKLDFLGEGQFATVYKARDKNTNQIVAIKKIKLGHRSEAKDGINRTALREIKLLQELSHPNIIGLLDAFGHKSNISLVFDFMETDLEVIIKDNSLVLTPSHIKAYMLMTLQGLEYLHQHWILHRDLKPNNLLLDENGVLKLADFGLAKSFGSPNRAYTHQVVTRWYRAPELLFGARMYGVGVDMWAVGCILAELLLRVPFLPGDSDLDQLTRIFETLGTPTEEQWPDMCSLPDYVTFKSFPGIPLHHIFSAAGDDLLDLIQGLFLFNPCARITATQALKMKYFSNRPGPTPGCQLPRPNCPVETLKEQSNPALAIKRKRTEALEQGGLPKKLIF
Sequence (P51946 whole entry partner, the tested form may be a part): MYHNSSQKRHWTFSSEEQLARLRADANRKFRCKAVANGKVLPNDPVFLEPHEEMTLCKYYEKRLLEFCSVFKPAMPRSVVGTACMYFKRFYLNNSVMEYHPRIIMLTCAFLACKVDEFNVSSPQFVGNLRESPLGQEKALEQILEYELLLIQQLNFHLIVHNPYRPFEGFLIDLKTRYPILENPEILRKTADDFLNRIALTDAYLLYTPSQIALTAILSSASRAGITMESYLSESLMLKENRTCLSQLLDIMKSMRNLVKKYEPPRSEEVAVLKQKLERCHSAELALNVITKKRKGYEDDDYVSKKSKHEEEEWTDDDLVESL
Sequence (P51948 whole entry partner, the tested form may be a part): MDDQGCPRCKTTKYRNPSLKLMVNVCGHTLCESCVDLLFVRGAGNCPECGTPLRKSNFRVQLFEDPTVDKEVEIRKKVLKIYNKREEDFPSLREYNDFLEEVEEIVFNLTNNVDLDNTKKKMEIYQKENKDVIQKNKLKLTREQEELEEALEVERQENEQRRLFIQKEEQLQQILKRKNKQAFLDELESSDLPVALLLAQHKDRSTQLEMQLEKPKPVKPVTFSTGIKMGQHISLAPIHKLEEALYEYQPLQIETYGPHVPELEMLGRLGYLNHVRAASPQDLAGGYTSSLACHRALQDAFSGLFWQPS
assaySummary: Flint assay, end-point fluorescence (5 nM CDK7/Cyclin H/MAT-1 complex)
Type: biochemical

Study these solved cases before continuing.
{"chemicalStructure": "C[C@@H]1Cc2cnc(NCc3ccsc3)nc2CN1C(=O)[C@H]1CCN(C)C[C@@H]1c1ccccc1", "result": 7.92}
{"chemicalStructure": "C[C@@H]1Cc2cnc(Nc3cnn4c3CCCC4)nc2CN1C(=O)[C@H]1CCN(C)C[C@@H]1c1ccccc1", "result": 7.88}
{"chemicalStructure": "C[C@@H]1Cc2cnc(N[C@H](CO)c3ccccc3)nc2CN1C(=O)[C@H]1CCN(C)C[C@@H]1c1ccccc1", "result": 8.22}

Now look at this one.
Which CDK7 (5 nM) pIC50 reading was recorded for the molecule C[C@H](Nc1ncc2c(n1)CN(C(=O)[C@H]1CCN(C)C[C@@H]1c1ccccc1)[C@H](C)C2)c1ccccn1 ?
8.19

###

studyTarget: CDK7/Cyclin H/MAT-1 complex (Homo sapiens, UniProt P50613)
Construct: Human CDK7 (amino acids 1-346); His6 (N); TEV protease cleavage site (N); made in house; host or cells: baculovirus-SF9 insect cells
assaySummary: Flint assay, end-point fluorescence (5 nM CDK7/Cyclin H/MAT-1 complex)
Assay type: biochemical
Listed here are molecules together with their documented CDK7 (5 nM) pIC50.
Hey, just send me the number, nothing else.

Study these solved cases before continuing.
{"molecule": "C[C@@H]1Cc2cnc(N[C@H]3CC[C@H](C)CC3)nc2CN1C(=O)[C@H]1CCN(C)C[C@@H]1c1ccccc1", "CDK7 (5 nM) pIC50": 8.85}
{"molecule": "Cc1cc(Nc2ncc3c(n2)CN(C(=O)[C@H]2CCN(C)C[C@@H]2c2ccccc2)[C@H](C)C3)ccn1", "CDK7 (5 nM) pIC50": 8.37}
{"molecule": "C[C@@H]1Cc2cnc(NCC3CCS(=O)(=O)C3)nc2CN1C(=O)[C@H]1CCN(C)C[C@@H]1c1ccccc1 (stereo partly shown)", "CDK7 (5 nM) pIC50": 7.2}
{"molecule": "C[C@@H]1Cc2cnc(NC3CCN(S(=O)(=O)C4CC4)CC3)nc2CN1C(=O)N1CCN(C)C[C@@H]1c1ccccc1", "CDK7 (5 nM) pIC50": 8.48}
{"molecule": "CN1CC[C@H](C(=O)N2Cc3nc(NC4CCOCC4)ncc3C(C)(C)C2)[C@@H](c2ccccc2)C1", "CDK7 (5 nM) pIC50": 7.05}

Which CDK7 (5 nM) pIC50 reading was recorded for the molecule C[C@@H]1Cc2cnc(NC(C)(C)c3cnn(C)c3)nc2CN1C(=O)[C@H]1CCN(C)C[C@@H]1c1ccccc1 ?
7.57

###

studyTarget: CDK7/Cyclin H/MAT-1 complex (Homo sapiens, UniProt P50613)
Construct: Human CDK7 (amino acids 1-346); His6 (N); TEV protease cleavage site (N); made in house; host or cells: baculovirus-SF9 insect cells
assaySummary: Absorbance kinetic assay (20 nM CDK7/Cyclin H/MAT-1 complex)
Type: biochemical
Listed here are molecules together with their documented CDK7 (20 nM) pIC50.
Hey, just send me the number, nothing else.

Study these solved cases before continuing.
{"molecule": "Cc1cc(Nc2ncc3c(n2)CN(C(=O)[C@H]2CCN(C)C[C@@H]2c2ccccc2)[C@H](C)C3)ccn1", "CDK7 (20 nM) pIC50": 7.93}
{"molecule": "C[C@@H]1Cc2cnc(NCc3cn(C)cn3)nc2CN1C(=O)[C@H]1CCN(C)C[C@@H]1c1ccccc1", "CDK7 (20 nM) pIC50": 7.38}
{"molecule": "CN1CC[C@H](C(=O)N2Cc3nc(NC4CCOCC4)ncc3C(C)(C)C2)[C@@H](c2ccccc2)C1", "CDK7 (20 nM) pIC50": 6.75}

Record lookup: for CDK7/Cyclin H/MAT-1 complex (Homo sapiens, UniProt P50613), what CDK7 (20 nM) pIC50 belongs to CC(C)N1CC[C@@H](C(=O)N2Cc3nc(NC4CCOCC4)ncc3C[C@H]2C)[C@H](c2cccc(F)c2)C1 (single isomer, unassigned) ?
6.06

Record lookup: for CDK7/Cyclin H/MAT-1 complex (Homo sapiens, UniProt P50613), what CDK7 (20 nM) pIC50 belongs to C[C@@H]1Cc2cnc(NC3CCN(S(C)(=O)=O)CC3)nc2CN1C(=O)N1CCN(C)C[C@@H]1c1ccccc1 ?
7.77

Record lookup: for CDK7/Cyclin H/MAT-1 complex (Homo sapiens, UniProt P50613), what CDK7 (20 nM) pIC50 belongs to C[C@@H]1Cc2cnc(NCc3ccn(C)n3)nc2CN1C(=O)N1CCN(C)C[C@@H]1c1ccccc1 ?
6.8

###

Listed here are compounds together with their documented IC50.
Tested on: RNA polymerase II Serine 5 phosphorylation (Rpb1 CTD), downstream substrate of CDK7
assaySummary: Imaging-based cellular RNA PolII Ser5 phosphorylation assay in A549 cells
Assay type: cell-based, human
measurementContext: Homo sapiens, A549, 3 h, challenged with compound for 3 hours, read-out: pRNA polII Ser5 (A549) pIC50 (converted)
Field: numeric (nM). Do not append units.

Study these solved cases before continuing.
{"compound": "C[C@@H]1Cc2cnc(NCc3ccn(C)n3)nc2[C@@H](C)N1C(=O)[C@H]1CCN(C)C[C@@H]1c1ccccc1 (relative stereo)", "unitOfMeasurement": "nM", "result": 2820}
{"compound": "C[C@@H]1Cc2cnc(NC[C@@H]3CCOC3)nc2CN1C(=O)[C@H]1CCN(C)C[C@@H]1c1ccccc1", "unitOfMeasurement": "nM", "result": 617}

Which IC50 reading was recorded for the compound [2H]C([2H])([2H])N1CC[C@H](C(=O)N2Cc3nc(NC4CCOCC4)ncc3C[C@H]2C)[C@@H](c2ccccc2)C1 (single isomer, unassigned) ?
126

Which IC50 reading was recorded for the compound C[C@@H]1CN(C(=O)[C@H]2CCN(C)C[C@@H]2c2ccccc2)Cc2nc(NC3CCOCC3)ncc21 (relative stereo) ?
105

Which IC50 reading was recorded for the compound C[C@@H]1Cc2cnc(NCc3ccsc3)nc2CN1C(=O)[C@H]1CCN(C)C[C@@H]1c1ccccc1 ?
132

Which IC50 reading was recorded for the compound C[C@@H]1Cc2cnc(NC3CCN(C4CC4)CC3)nc2CN1C(=O)[C@H]1CCN(C)C[C@@H]1c1ccccc1 ?
1380

Which IC50 reading was recorded for the compound [2H]C([2H])([2H])N1CC[C@H](C(=O)N2Cc3nc(NCc4ccccc4)ncc3C[C@H]2C)[C@@H](c2ccccc2)C1 (single isomer, unassigned) ?
129

Which IC50 reading was recorded for the compound CO[C@H]1CC[C@H](Nc2ncc3c(n2)CN(C(=O)C2CCN(C)CC2c2ccnc(C)c2)[C@H](C)C3)CC1 (stereo partly shown) ?
1230

Which IC50 reading was recorded for the compound C[C@@H]1Cc2cnc(N[C@H]3CCOC4(CCCC4)C3)nc2CN1C(=O)[C@H]1CCN(C)C[C@@H]1c1ccccc1 (relative stereo) ?
40.7

###

Listed here are compounds together with their documented CDK7 (20 nM) pIC50.
studyTarget: CDK7/Cyclin H/MAT-1 complex (Homo sapiens, UniProt P50613)
Construct: Human CDK7 (amino acids 1-346); His6 (N); TEV protease cleavage site (N); made in house; host or cells: baculovirus-SF9 insect cells
assaySummary: Absorbance kinetic assay (20 nM CDK7/Cyclin H/MAT-1 complex)
Type: biochemical
Hey, just send me the number, nothing else.

Study these solved cases before continuing.
{"compound": "C[C@@H]1Cc2cnc(NCC(=O)N3CCCCC3)nc2CN1C(=O)[C@H]1CCN(C)C[C@@H]1c1ccccc1", "quantityKind": "CDK7 (20 nM) pIC50", "result": 6.59}
{"compound": "C[C@@H]1Cc2cnc(N[C@H]3CC[C@@H](C)CC3)nc2CN1C(=O)[C@H]1CCN(C)C[C@@H]1c1ccccc1", "quantityKind": "CDK7 (20 nM) pIC50", "result": 7.89}
{"compound": "C[C@@H]1Cc2cnc(NC3CCN(S(=O)(=O)C4CC4)CC3)nc2CN1C(=O)[C@H]1CCN(C)C[C@@H]1c1ccccc1", "quantityKind": "CDK7 (20 nM) pIC50", "result": 6.18}
{"compound": "C[C@@H]1Cc2cnc(Nc3ccnn3C)nc2CN1C(=O)[C@H]1CCN(C)C[C@@H]1c1ccccc1", "quantityKind": "CDK7 (20 nM) pIC50", "result": 7.37}
{"compound": "C[C@@H]1Cc2cnc(NC3CCOCC3)nc2CN1C(=O)[C@H]1CCN(C2CC2)C[C@@H]1c1ccccc1 (single isomer, unassigned)", "quantityKind": "CDK7 (20 nM) pIC50", "result": 6.74}
{"compound": "CC(C)n1cc(Nc2ncc3c(n2)CN(C(=O)[C@H]2CCN(C)C[C@@H]2c2ccccc2)[C@H](C)C3)cn1", "quantityKind": "CDK7 (20 nM) pIC50", "result": 6.1}

Which CDK7 (20 nM) pIC50 reading was recorded for the compound C[C@@H]1Cc2cnc(NC3CCOCC3)nc2CN1C(=O)[C@@H]1CC[C@H](N(C)C)CN1c1ccccc1 (mixture of isomers) ?
5.87

Which CDK7 (20 nM) pIC50 reading was recorded for the compound C[C@@H]1Cc2cnc(NC3CCOCC3)nc2CN1C(=O)[C@@H]1CC[C@@H](N(C)C)CN1c1ccccc1 (mixture of isomers) ?
6.25

Which CDK7 (20 nM) pIC50 reading was recorded for the compound CC(C)N1CC[C@H](C(=O)N2Cc3nc(NC4CCOCC4)ncc3C[C@H]2C)[C@@H](c2cccc(F)c2)C1 (single isomer, unassigned) ?
6.83

Which CDK7 (20 nM) pIC50 reading was recorded for the compound C[C@@H]1Cc2cnc(NC[C@H]3CCOC3)nc2CN1C(=O)[C@H]1CCN(C)C[C@@H]1c1ccccc1 ?
7.39

Which CDK7 (20 nM) pIC50 reading was recorded for the compound C[C@@H]1Cc2cnc(NCc3ccsc3)nc2CN1C(=O)[C@H]1CCN(C)C[C@@H]1c1ccccc1 ?
7.59

Which CDK7 (20 nM) pIC50 reading was recorded for the compound C[C@@H]1Cc2cnc(N[C@H](C)c3ccccc3)nc2CN1C(=O)[C@H]1CCN(C)C[C@@H]1c1ccccc1 ?
8.01

Which CDK7 (20 nM) pIC50 reading was recorded for the compound CN1CC[C@H](C(=O)N2Cc3nc(Nc4cnn(C)c4)ncc3[C@@H]3C[C@@H]32)[C@@H](c2ccccc2)C1 ?
7.46

Which CDK7 (20 nM) pIC50 reading was recorded for the compound Cc1ccc(CNc2ncc3c(n2)CN(C(=O)[C@H]2CCN(C)C[C@@H]2c2ccccc2)[C@H](C)C3)o1 ?
7.6

Which CDK7 (20 nM) pIC50 reading was recorded for the compound C[C@@H]1CN(C(=O)[C@H]2CCN(C)C[C@@H]2c2ccccc2)[C@@H](C)c2nc(NC3CCOCC3)ncc21 [Compound 180b] ?
5.65

Which CDK7 (20 nM) pIC50 reading was recorded for the compound C[C@@H]1Cc2cnc(NCC3CC3)nc2CN1C(=O)[C@H]1CCN(C)C[C@@H]1c1ccccc1 ?
7.94

Which CDK7 (20 nM) pIC50 reading was recorded for the compound C[C@@H]1Cc2cnc(NC3CCN(C4COC4)CC3)nc2CN1C(=O)[C@H]1CCN(C)C[C@@H]1c1ccccc1 ?
7.46

Which CDK7 (20 nM) pIC50 reading was recorded for the compound C[C@@H]1Cc2cnc(Nc3cnn4c3CCCC4)nc2CN1C(=O)[C@H]1CCN(C)C[C@@H]1c1ccccc1 ?
7.53

Which CDK7 (20 nM) pIC50 reading was recorded for the compound CO[C@H]1CC[C@H](Nc2ncc3c(n2)CN(C(=O)[C@H]2CCN(C)C[C@@H]2c2ccccc2)C2(CC2)C3)CC1 ?
6.80

Which CDK7 (20 nM) pIC50 reading was recorded for the compound C[C@@H]1Cc2cnc(NCC3CCOCC3)nc2CN1C(=O)[C@H]1CCN(C)C[C@@H]1c1ccccc1 ?
7.19

Which CDK7 (20 nM) pIC50 reading was recorded for the compound C[C@@H]1Cc2cnc(NCc3ccn(C)n3)nc2CN1C(=O)[C@H]1CCN(C)C[C@@H]1c1ccccc1 ?
8.01
